- SYSTEM UNDER TEST: T1, human CD84 on cells (human) (UniProt Q9UIB8)
- T1 sequence (looked up): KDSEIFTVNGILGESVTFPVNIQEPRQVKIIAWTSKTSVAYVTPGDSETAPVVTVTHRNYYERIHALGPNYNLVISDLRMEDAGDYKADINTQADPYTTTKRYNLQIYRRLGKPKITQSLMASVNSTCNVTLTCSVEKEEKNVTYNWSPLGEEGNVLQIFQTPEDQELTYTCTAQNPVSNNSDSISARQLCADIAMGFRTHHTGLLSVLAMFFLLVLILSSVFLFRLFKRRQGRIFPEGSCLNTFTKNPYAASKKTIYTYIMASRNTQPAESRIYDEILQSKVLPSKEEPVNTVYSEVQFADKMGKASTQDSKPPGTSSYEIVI
- MEASUREMENT DESCRIPTION: flow cytometry, hybridoma supernatant at equal antibody concentration, monocytes
OBSERVATION TYPE: Monocyte binding

>>> reported("GYCD84.1-7 (antibody, mouse IgG1, V domains shown) VH: QVTLKESGPGILQPSQTLSLTCSFSGFSLSTSGMGVGWIRQPSGKGLEWLAHIWWDDVKRYNPALKSRLTISKDTSSSQVFLKIASVDTADTATYYCARMRTSYYFDYWGQGTTLTVSS VL: DIQMTQSPASLSASVGETVTITCRASENIFSSLAWYQQRQGKSPQLLVYNAKTLAEGVPSRFSGSGSGTQFSLKINSLQPEDFGSYYCQHHYATPFTFGSGTKLEIK")
"64.4%"
>>> reported("GYCD84.5.171 (antibody, mouse IgG1, V domains shown) VH: EVQLVESGGGLVQPKGSLKLACAASGFTFNIYAMNWVRQAPGKGLEWVARIRSKSNNYARFYADSVKDRFTISRDDSQSMLYLQMNNLKTEDTAMYYCVRPLRSYFSMDYWGQGTSVTVSS VL: SIVMTQSPKSMSMSVGERVTLSCKASENVDTYVSWYQQKPEQSPKLLIYGASNRYTGVPDRFTGSGSATDFTLTISSVKAEDLADYHCGQTYSYPWTFGGGTKLEIK")
"64.8%"
>>> reported("GYCD84.2.32 (antibody, mouse IgG1, V domains shown) VH: EVQLQQSGPELEKPGASVKISCKASGYSFTGYNMNWVKQSNGKSLEWIGNIDPYYGGTNYNQKFKGKATLTVDKSSSTAYMQLKSLTSEDSAVYYCARGLLSGSFPYWGQGTLVTVSA VL: DIQMTQSPASLSASVGETVTITCRASENIYSYLAWYQQKQGKSPQLLVYNAKTLAEGVPSRFSGSGSGTQFSLKINSLHPEDFGSYFCQHHYGSPLTFGAGTKLEVK")
"78.2%"
>>> reported("152-1D5 (antibody, mouse IgG1, V domains shown) VH: QVQLQQPGAEVVQPGTSVKLSCKASGYNFTNYWINWVKLRPGQGLEWIGDIYPVSGTTNYNEKFKRKATLTVDTSSSTGNMQLSSLASEDSALYYCASGTGRFAYWGQGTLVTVSA VL: DIVLTQSPASLAVSLGQRATISCRASQSVSTSSYSYMHWYQQKPGQPPKLLIKFASNLESGVPARFSGSGSGTDFTLNIHPVEEEDTATYYCQHSWEIPYTFGGGTKLEIK")
"72%"
>>> reported("GYCD84.1-108 (antibody, mouse IgG2a, V domains shown) VH: QVQLQQSGAELVRPGTSVKMSCKAAGYTFTNYWIGWVRQRPGHGLEWIGDIYPGGGYTNYNENFKGKATLTADTSSSTAYMQLSSLTSEDSAIYYCARSTTYYSSYWCFDVWGPGTTVTVSS VL: DIVMTQSPSSLSVSAGEKVTMSCKSSQSLLNSGNQANYLAWYQQKPGQPPKLLINGASTRESGVPDRFTGSGSGTDFTLTISSVQAEDLAVYYCQNDHSYPFTFGSGTKLEIK")
"41.3%"
